What HSA (%) binding was measured for each of the following?
target-under-test: human serum albumin (HSA) (Homo sapiens, UniProt P02768)
Sequence (P02768 25-609): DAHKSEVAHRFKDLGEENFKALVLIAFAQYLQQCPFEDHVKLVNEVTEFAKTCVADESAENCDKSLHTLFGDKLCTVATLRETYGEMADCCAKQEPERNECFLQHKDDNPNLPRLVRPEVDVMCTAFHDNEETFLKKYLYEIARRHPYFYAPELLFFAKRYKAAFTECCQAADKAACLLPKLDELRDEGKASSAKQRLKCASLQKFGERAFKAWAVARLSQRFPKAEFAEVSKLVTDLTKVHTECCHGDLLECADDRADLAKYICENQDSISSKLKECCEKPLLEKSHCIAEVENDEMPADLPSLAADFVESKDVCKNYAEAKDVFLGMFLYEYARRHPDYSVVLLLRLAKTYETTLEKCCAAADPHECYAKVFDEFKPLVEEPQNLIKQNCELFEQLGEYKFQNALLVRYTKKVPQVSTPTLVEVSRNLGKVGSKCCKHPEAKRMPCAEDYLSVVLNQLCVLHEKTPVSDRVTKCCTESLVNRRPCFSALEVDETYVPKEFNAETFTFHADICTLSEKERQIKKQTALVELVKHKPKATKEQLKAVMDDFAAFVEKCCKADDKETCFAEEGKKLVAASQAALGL
Format: in vitro ADME
test-conditions: human, pH 7.4
# number only, unit % dropped from output

# get_value(readout='HSA (%) binding', item= `COc1ccc(-c2cc(CN3CCSCC3)c(C)n2-c2ccc(F)cc2)cc1` ) 96.82

Tell me the measured HSA (%) binding of `CCc1ccc(-n2c(-c3ccc(OC)cc3)cc(CN3CCOCC3)c2C)cc1` , please. 96.79

Quick check: HSA (%) binding of `CCc1ccc(-c2cc(CN3CCOCC3)c(C)n2-c2ccc(Cl)cc2)cc1` ? 97.74

Sample `COc1ccc(-c2cc(CN3CCOCC3)c(C)n2-c2ccc(F)cc2)cc1` — what was its HSA (%) binding? 95.58

Would you kindly share the measured HSA (%) binding for `Cc1c(CN2CCOCC2)cc(-c2ccc(Cl)cc2)n1-c1ccc(C(C)C)cc1` ? 98.19

Requested read-out: HSA (%) binding. Entry: `CCc1ccc(-c2cc(CN3CCOCC3)c(C)n2-c2ccc(F)cc2)cc1` 97.14

Which HSA (%) binding is listed for `Cc1ccc(-c2cc(CN3CCOCC3)c(C)n2-c2ccc(Cl)cc2)cc1` ? 97.69

Need HSA (%) binding, item `Cc1c(CN2CCN(C)CC2)cc(-c2ccc(Cl)cc2)n1-c1ccc(Cl)cc1` 98.07

Returns the measured HSA (%) binding for the input compound. Input: `Cc1c(CN2CCOCC2)cc(-c2ccc(C(C)C)cc2)n1-c1ccc(Cl)cc1` 97.94

If you can, please state the reported HSA (%) binding value of `COc1ccc(-c2cc(CN3CCOCC3)c(C)n2-c2ccc(C)cc2)cc1` . 95.64

# input compound: `CCCc1ccc(-c2cc(CN3CCOCC3)c(C)n2-c2ccc(OC)cc2)cc1` ; wanted: its HSA (%) binding 97.17

Bench note: what HSA (%) binding did `CCCc1ccc(-n2c(-c3ccc(Cl)cc3)cc(CN3CCOCC3)c2C)cc1` show? 98.24

Looking for the measured HSA (%) binding of `CCc1ccc(-c2cc(CN3CCOCC3)c(C)n2-c2ccc(OC)cc2)cc1` , can you help? 96.65

Please report the recorded HSA (%) binding for `COc1ccc(-n2c(-c3ccc(C(C)C)cc3)cc(CN3CCOCC3)c2C)cc1` . 97.07
